Origin of the recorded values: PubChem BioAssay AID192

Test system: BDF1 mice, B16 melanoma ip, median survival T/C
Assay: NCI In Vivo Anticancer Drug Screen. Data for tumor model B16 Melanoma (intraperitoneal) in B6D2F1 (BDF1) mice
Settings: endpoint: median survival time; dose: 50.0 mg/kg/injection; schedule: Q01DX009 (ip); vehicle: other; higher = longer survival
Inconclusive results and toxic doses are left out.

COMPOUND: CCOc1c(Br)cc(Br)cc1C=C(C#N)C#N
T/C: 109 % of control
//
COMPOUND: C=CCOC(=O)C1CC(C(=O)OCC=C)C(C(=O)OCC=C)C1C(=O)OCC=C (stereo unspecified)
T/C: 96 % of control
//
COMPOUND: CCOC(=O)C(NC(N)=O)C(=O)OCC
T/C: 104 % of control
//
COMPOUND: Cc1cccc(C)c1NC(=O)Nc1ccc(Cl)c(Cl)c1
T/C: 99 % of control
//
COMPOUND: [N-]=[N+]=CC(=O)NCC(=O)NN
T/C: 111 % of control
//
COMPOUND: O=CN(c1ccccc1)c1ccccc1
T/C: 100 % of control

###

Test system: BDF1 mice, B16 melanoma ip, median survival T/C
Assay: NCI In Vivo Anticancer Drug Screen. Data for tumor model B16 Melanoma (intraperitoneal) in B6D2F1 (BDF1) mice
Conditions: endpoint: median survival time; dose: 25.0 mg/kg/injection; schedule: Q01DX009 (ip); vehicle: saline; higher = longer survival
Toxic doses and inconclusive results are not listed.
OUTCOME_MEASURE: T/C

COMPOUND: CCCC(=O)O
REPORTED: 101 % of control
//
COMPOUND: CCOC(=O)c1[nH]c(C)nc1/N=N/N(C)C
REPORTED: 110 % of control
//
COMPOUND: CC1CNC(=O)O1 (centres undefined)
REPORTED: 104 % of control
//
COMPOUND: C[N+](C)(C)c1ncnc2nc[nH]c12
REPORTED: 89 % of control
//
COMPOUND: CNC(=O)ON(C(C)=O)C(=O)NC
REPORTED: 88 % of control
//
COMPOUND: CCNCCCN
REPORTED: 94 % of control
//
COMPOUND: OC(CCl)Cc1ccccc1 (centres undefined)
REPORTED: 95 % of control
//
COMPOUND: N[C@@H](Cc1ccc(O)c(O)c1)C(=O)O
REPORTED: 109 % of control
//
COMPOUND: CC(C)(N)Cc1ccc(Cl)cc1
REPORTED: 97 % of control
//
COMPOUND: Nc1nc(Cl)nc2c1ncn2C1OC(CO)C(O)C1O (centres undefined)
REPORTED: 95 % of control
//
COMPOUND: NCCC(=O)OC1CCCc2c(O)c3c(c(O)c21)C(=O)c1ccccc1C3=O (centres undefined)
REPORTED: 100 % of control
//
COMPOUND: COc1cc(C)c2c(c1C=O)Oc1c(c(C)c(O)c3c1C(O)OC3=O)OC2=O (centres undefined)
REPORTED: 101 % of control
//
COMPOUND: CCOc1cc(N2CCOCC2)c(OCC)cc1N
REPORTED: 100 % of control
//
COMPOUND: CC(N)C(=O)NC(C(=O)O)C(C)O (centres undefined)
REPORTED: 92 % of control
//
COMPOUND: CCNC(Cc1ccccc1)C1CCCO1 (centres undefined)
REPORTED: 115 % of control
//
COMPOUND: CCN(CC)C(=O)C1CN2CCc3cc(OC)c(OC)cc3C2CC1O (centres undefined)
REPORTED: 90 % of control
//
COMPOUND: O=c1[nH]c(=O)c2nc(-c3cccnc3)cnc2[nH]1
REPORTED: 93 % of control
//
COMPOUND: CCC(C)C(C(=O)OC1CCN(C)CC1)c1ccccc1 (centres undefined)
REPORTED: 101 % of control
//
COMPOUND: CC(=O)OCCC/C(=C\c1ccc2ccccc2c1)[N+](=O)[O-]
REPORTED: 91 % of control
//
COMPOUND: C=CCOCC(O)CN(C)CC1CCCO1 (centres undefined)
REPORTED: 103 % of control
//
COMPOUND: c1ccc(OP2OCCO2)cc1
REPORTED: 88 % of control
//
COMPOUND: C[N+](C)(C)C1CC1
REPORTED: 102 % of control
//
COMPOUND: c1ccc(CN2CCNCC2)cc1
REPORTED: 106 % of control
//
COMPOUND: CCN(CC)CCOC(=O)c1cccnc1
REPORTED: 100 % of control
//
COMPOUND: [Br][Ga]([Br])[Br]
REPORTED: 96 % of control
//
COMPOUND: O=C1CN(CN2CCOCC2)C(=O)CN1CN1CCOCC1
REPORTED: 102 % of control
//
COMPOUND: C1OC1CO[C@@H]1CO[C@H]2[C@@H]1OC[C@H]2OCC1CO1 (some centres undefined)
REPORTED: 94 % of control
//
COMPOUND: COC1N(C2CC(O)C(CO)O2)C(=O)NC(=O)C1(F)Br (centres undefined)
REPORTED: 88 % of control
//
COMPOUND: COC(=O)C1C2CC3c4[nH]c5cc(OC)ccc5c4CCN3CC2CC(OC)C1OC (centres undefined)
REPORTED: 101 % of control

###

System: BDF1 mice, B16 melanoma ip, median survival T/C
Assay: NCI In Vivo Anticancer Drug Screen. Data for tumor model B16 Melanoma (intraperitoneal) in B6D2F1 (BDF1) mice
Settings: endpoint: median survival time; dose: 100.0 mg/kg/injection; schedule: Q04DX003 (ip); vehicle: Klucel (hydroxypropylcellulose) (HPC); higher = longer survival
Inconclusive results and toxic doses are left out.
T/C by entry:
OUTCOME_MEASURE: T/C

MOLECULE: COc1ccc2c(c1)CN(S(=O)(=O)c1ccc(C)cc1)C=CC2=O
OUTCOME_MEASURE: T/C
REPORTED: 108 % of control

MOLECULE: Nc1ccccc1SC1CC(=O)N(c2cccc3ccccc23)C1=O (stereo unspecified)
OUTCOME_MEASURE: T/C
REPORTED: 100 % of control

MOLECULE: C1CC[N-]CC1.C1CC[N-]CC1.O=C(O)C(=O)O.[Pt+2]
OUTCOME_MEASURE: T/C
REPORTED: 113 % of control

MOLECULE: Cc1cc(C)cc(-n2nnc3ccccc3c2=O)c1
OUTCOME_MEASURE: T/C
REPORTED: 95 % of control

MOLECULE: CCC(C)c1ccccc1OC(=O)Nc1ccc(OC)cc1 (stereo unspecified)
OUTCOME_MEASURE: T/C
REPORTED: 106 % of control

MOLECULE: O=C(CCN1CCCCC1)c1cccc([N+](=O)[O-])c1
OUTCOME_MEASURE: T/C
REPORTED: 94 % of control

MOLECULE: CC1(CO)C(O)CCC2(C)C1CCC1CC3CC12CCC3(O)CO (stereo unspecified)
OUTCOME_MEASURE: T/C
REPORTED: 117 % of control

MOLECULE: COc1c(C(C)(C)C)cc([N+](=O)[O-])c(C)c1[N+](=O)[O-]
OUTCOME_MEASURE: T/C
REPORTED: 100 % of control

MOLECULE: O=[N+]([O-])c1cccc(S(=O)(=O)N2CCN(S(=O)(=O)c3cccc([N+](=O)[O-])c3)C2)c1
OUTCOME_MEASURE: T/C
REPORTED: 109 % of control

MOLECULE: Cc1[nH]c(=O)[nH]c(=O)c1C
OUTCOME_MEASURE: T/C
REPORTED: 97 % of control

MOLECULE: Cc1cc(C(C)C)cc(C(C)C)c1
OUTCOME_MEASURE: T/C
REPORTED: 98 % of control

###

Test system: BDF1 mice, B16 melanoma ip, median survival T/C
Assay: NCI In Vivo Anticancer Drug Screen. Data for tumor model B16 Melanoma (intraperitoneal) in B6D2F1 (BDF1) mice
Details: endpoint: median survival time; dose: 3.12 mg/kg/injection; schedule: Q01DX009 (ip); vehicle: saline with Tween-80; higher = longer survival
Inconclusive results and toxic doses are left out. Peptide text beside a SMILES is read from it. * marks the point of attachment. Cbz = O=C(OCc1ccccc1)*
OUTCOME_MEASURE: T/C

COMPOUND: CCCN(C)N=Nc1ccccc1C(=O)O
OUTCOME_MEASURE: T/C
REPORTED: 103 % of control
//
COMPOUND: NC(=O)C(Cc1ccccc1)NC(=O)C(Cc1ccccc1)NC(=O)C(Cc1ccccc1)NC(=O)OCc1ccccc1 (stereo not drawn) (Cbz-Phe-Phe-Phe-NH2; configuration not given here)
OUTCOME_MEASURE: T/C
REPORTED: 100 % of control
//
COMPOUND: N#C[CH2][Sn]([I])([c]1ccccc1)[c]1ccccc1
OUTCOME_MEASURE: T/C
REPORTED: 93 % of control
//
COMPOUND: CCCCOc1ccc(NC(N)=Nc2ccc(Cl)cc2)cc1
OUTCOME_MEASURE: T/C
REPORTED: 95 % of control
//
COMPOUND: CCCCCCCCCCCCCCCc1ccc(C(=O)C[n+]2ccccc2)cc1
OUTCOME_MEASURE: T/C
REPORTED: 102 % of control
